Experiment: self-splicing fitness, log relative to wild type (ln ratio); higher = more splicing; Tetrahymena group I intron in knt gene, E. coli kanamycin selection, DiMSum; sequences stand for … in CUCUCU…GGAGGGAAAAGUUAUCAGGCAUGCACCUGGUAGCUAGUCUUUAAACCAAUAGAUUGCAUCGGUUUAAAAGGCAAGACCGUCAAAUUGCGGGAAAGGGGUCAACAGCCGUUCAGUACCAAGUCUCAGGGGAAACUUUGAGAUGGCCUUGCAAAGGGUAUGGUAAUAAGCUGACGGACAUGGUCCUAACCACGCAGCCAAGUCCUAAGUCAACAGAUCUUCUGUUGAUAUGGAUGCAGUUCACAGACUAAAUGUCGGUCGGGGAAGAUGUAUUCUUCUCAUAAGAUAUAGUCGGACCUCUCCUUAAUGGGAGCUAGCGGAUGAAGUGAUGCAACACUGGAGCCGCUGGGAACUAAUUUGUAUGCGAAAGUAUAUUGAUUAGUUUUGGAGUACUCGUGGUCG;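 also: selection with 25 µg/mL kanamycin versus none on LB agar overnight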
Conditions: 37 °C
Tag: YES if measured self-splicing fitness (ln) is not below -0.9, NO if it is.

Solved cases below.
{"columns": ["sequence_record", "classification"],
 "data": [
  ["CCUGAGCAAUAUUACGAGAA", "NO"],
  ["GCCGAGCAAUAUUACGUCUG", "NO"],
  ["AAGUAGCAAUAUUACGCGCG", "YES"],
  ["UGGCAGCAAUAUUACGAAGA", "NO"]
]}

input: Textbook exercise: given the entry CAUGAGCAAUAUUACGGAGC , state whether its self-splicing fitness (ln) is greater than or equal to -0.9.
output: NO
